This collection of values is drawn from patent US10501502B2.

experiment: FP purification and fluorescence characterization in vitro (spectra, extinction coefficient, quantum yield); assay type: physicochemical; conditions: evolved APCα FPs, Table 4
Kindly supply the reported Extinction Coefficient values for the records listed here.

Give Extinction Coefficient for each of the items listed below.
1. R5-2: evolved APCα FP, SEQ ID NO: 6, with BV (protein, biliverdin chromophore; smRUFP Variant Polypeptide) MKTCEQRVKIATLLSENEKKIVDKASQDLWRRRPDFIAPGGIAFSQRERALCLRDHRWYLHLITFCLLAGDKDPIESIGLIGIREMYNSLGVPVPGMMESIRCLKEASLSLLDEEDAKETAPYFDYIIKAMS
2. R2-1 + PCB: evolved APCα FP, SEQ ID NO: 3, with PCB (protein, phycocyanobilin chromophore; smRUFP Variant Polypeptide) MKTGEQRVKIATLLSENEKKIVDKASQDLWRRRPDFIAPGGIAFGQRERALCLRDYGWYLRLITFCLLAGDKDPIESIGLIGVREMYNSLGVPVPGMVESIRCLKEASLSLLDEEDAKETAPYFDYIIQAMS

71,000 M^−1 cm^−1
65,000 M^−1 cm^−1
